Form field: IC50 (one value per entry).
# TARGET SYSTEM: NAMPT (Homo sapiens)
# Sequence (P43490 whole entry): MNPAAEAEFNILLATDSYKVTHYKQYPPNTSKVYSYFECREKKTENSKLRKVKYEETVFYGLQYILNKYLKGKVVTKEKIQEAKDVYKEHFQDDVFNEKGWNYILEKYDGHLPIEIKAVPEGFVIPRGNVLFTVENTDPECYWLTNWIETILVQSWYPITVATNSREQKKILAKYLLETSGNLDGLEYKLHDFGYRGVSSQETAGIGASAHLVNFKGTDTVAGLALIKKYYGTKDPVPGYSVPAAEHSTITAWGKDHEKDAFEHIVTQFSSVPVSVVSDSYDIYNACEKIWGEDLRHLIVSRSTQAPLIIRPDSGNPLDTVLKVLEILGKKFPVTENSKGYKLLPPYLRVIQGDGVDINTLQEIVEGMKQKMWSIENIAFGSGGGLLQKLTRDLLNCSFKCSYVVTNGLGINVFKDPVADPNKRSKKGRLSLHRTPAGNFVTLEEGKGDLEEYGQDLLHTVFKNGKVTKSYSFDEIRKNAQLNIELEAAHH
Give just the number in pM; leave the unit off.

Solved cases below.
> print(dat)
                                   compound         target.system  assay.value
1  O=C(NCc1ccn2ccnc2c1)c1ccc(-c2ccccc2)s1 [Example 299]  NAMPT (Homo sapiens)          283
2  O=C(NCc1ccn2ccnc2c1)Nc1ccc(OC2CCN(C(=O)c3cc(F)ccc3F)CC2)cc1 [Example 728]  NAMPT (Homo sapiens)          496
3  O=C(Nc1ccc(C(=O)NCCc2ccccc2)cc1)Nc1ccc2nccn2c1 [Example 4]  NAMPT (Homo sapiens)          516
4  CC(C)Cn1cc(-c2ncc(C(=O)NCc3ccn4ccnc4c3)s2)cn1 [Example 205]  NAMPT (Homo sapiens)          358

Attention now shifts to the item below.
Checklist item: IC50 tested on NAMPT (Homo sapiens), entry Cn1cccc1C(=O)N1CCC(c2ccc(C(=O)NCc3ccn4ccnc4c3)cc2)C1 (centres unmarked) [Example 606] , value? 169

====

# TARGET SYSTEM: NAMPT (human, recombinant, C-terminally His-tagged) (Homo sapiens, UniProt P43490)
# Sequence (P43490 whole entry): as above
# PROCEDURE TEXT: Time-Resolved Fluorescence Resonance Energy Transfer (TR-FRET) Binding Assay of NAMPT
# EXPERIMENTAL SETUP: without substrates; 6.8 nM NAMPT, 200 nM probe, 3 hours equilibration
IC50 by entry:
// units = nM; emit number, no label

Which value of IC50 has been reported for O=C(NCc1ccn2ccnc2c1)c1ccc(C2CCN(C(=O)c3ccncc3)CC2)cc1 [Example 535] in the records? 297

I am curious: what IC50 value has been reported for O=C(NCc1ccn2ccnc2c1)c1cnc(N2CC(CO)OC2=O)s1 (stereo not drawn) [Example 251] ? 2200

What does the record list as IC50 for O=C(NCc1ccn2ccnc2c1)c1ccc(C2CCN(C(=O)c3ccccc3F)CC2)cc1 [Example 513] ? 23.9

====

Read-out record for NAMPT (Homo sapiens, UniProt P43490): pIC50
Quick note: pIC50 means taking -log10 of the concentration in moles per liter.

Known results for compounds:
> print(dat)
                                   compound  assay.value
1  O=C(NCc1ccn2ccnc2c1)c1ccc(C2(NC(=O)C3CCOCC3)CCC2)s1         9.00
2  Cc1ccccc1C(=O)N1CCC(c2ccc(C(=O)NCc3ccn4ccnc4c3)s2)C1 (stereo not drawn)         9.33
3  O=C(NCc1ccn2ccnc2c1)Nc1ccc(C2CCN(C(=O)c3cc(F)cc(F)c3)CC2)cc1         9.00
4  CC(C)(O)C(=O)N1CCC(c2ccc(NC(=O)NCc3ccn4ccnc4c3)cc2)C1 (stereo not drawn)         9.27
5    O=C(NCc1ccn2ccnc2c1)c1cnc(-c2ccccc2)s1         8.71
6  O=C(NCc1ccn2ccnc2c1)c1ccc(-c2cnn(C3CCOCC3)c2)s1         9.77
7  O=C(NCc1ccn2ccnc2c1)c1ccc(C2CCN(C(=O)c3cccnc3)C2)cc1 (stereo not drawn)         9.21
8  CC[C@H](C)C(=O)N1CC=C(c2ccc(C(=O)NCc3ccn4ccnc4c3)o2)CC1         9.19

Give its pIC50 value. Item: O=C(CC1CCCC1)Nc1ccc(CNC(=O)c2ccc3nccn3c2)cc1 7.96

Need pIC50 of O=C(NCc1ccn2ccnc2c1)c1ccc(C2CCN(C(=O)C3CCS(=O)(=O)CC3)CC2)cc1 , thanks. 9.13

Recorded pIC50 of CC(C)C(=O)NC1(c2ccc(C(=O)NCc3ccn4ccnc4c3)s2)COC1 , please. 9.12

Which pIC50 value belongs to O=C(NCc1ccn2ccnc2c1)Nc1ccc(OC2CCN(C(=O)c3ccccc3)CC2)cc1 ? 9.67
